# experiment.summary: Pharmacokinetics in BALB/C nude mice after intragastric administration
# Format: in vivo
# assay.conditions: female, mouse, plasma, po, 30 mg/kg, read-out: Residence time MRT
test.readout: MRT

Task: What value of measured MRT is listed for `O=C(/C=C/CNC1(COc2ccc(/C(=C(/CC(F)(F)F)c3ccccc3)c3ccc4[nH]nc(F)c4c3)cn2)CC1)N1CCOCC1` ?
Result: 1.6 h

Task: Next entry: `O=C(/C=C/CNC1(COc2ccc(/C(=C(/CC(F)(F)F)c3ccccc3)c3ccc4[nH]nc(F)c4c3)cn2)CC1)N1CC[C@H](O)C1`
Result: 2.26 h

Task: Next entry: `O=C(/C=C/CN1CCC[C@@H](Oc2ccc(/C(=C(/CC(F)(F)F)c3ccccc3)c3ccc4[nH]nc(F)c4c3)cn2)C1)N1CCCC1`
Result: 1.41 h

###

# experiment.summary: Pharmacokinetics in BALB/C nude mice after intragastric administration
# Format: in vivo
# assay.conditions: female, mouse, plasma, po, 2 mg/kg, read-out: Apparent volume of distribution Vz/F
test.readout: Vd/F (L/kg)
State the answer as a number, implicitly in L/kg.

Task: What value of measured Vd/F is listed for `CN(C)C(=O)/C=C/CN1CCC[C@@H](Oc2ccc(/C(=C(/CC(F)(F)F)c3ccccc3)c3ccc4[nH]nc(F)c4c3)cn2)C1` ?
Result: 14.2

###

# experiment.summary: Pharmacokinetics in BALB/C nude mice after intragastric administration
# Format: in vivo
# assay.conditions: female, mouse, plasma, po, 2 mg/kg, read-out: Half-life t1/2 (converted)
test.readout: half-life
Don't forget the unit after the value.

Task: What value of measured half-life is listed for `CN(C)C(=O)/C=C/CN1CCC[C@@H](Oc2ccc(/C(=C(/CC(F)(F)F)c3ccccc3)c3ccc4[nH]nc(F)c4c3)cn2)C1` ?
Result: 1.01 h

###

Give Covalent modification effect on the estrogen receptor ERα wild-type for every item shown.
# tested.system: estrogen receptor ERα wild-type (Homo sapiens (Human), UniProt P03372)
# Sequence (P03372 296-554): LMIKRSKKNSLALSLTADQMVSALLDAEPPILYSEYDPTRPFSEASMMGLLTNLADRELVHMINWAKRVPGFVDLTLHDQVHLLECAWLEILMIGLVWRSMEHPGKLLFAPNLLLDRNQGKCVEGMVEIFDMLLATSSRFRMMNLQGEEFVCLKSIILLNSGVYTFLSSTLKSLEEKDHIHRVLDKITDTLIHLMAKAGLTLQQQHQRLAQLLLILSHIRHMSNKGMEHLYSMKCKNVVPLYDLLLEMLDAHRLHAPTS
# experiment.summary: Covalent modification of ERα wild-type LBD by high-resolution mass spectrometry
# Format: binding
# assay.conditions: after 24 hours; 2 μM protein, 10 μM compound, 4° C.
State the answer as a number, implicitly in %.

Task: What value of measured Covalent modification effect on the estrogen receptor ERα wild-type is listed for `CN(C)C(=O)/C=C/CN1CCC[C@@H](Oc2ccc(/C(=C(/CC(F)(F)F)c3ccc(S(C)(=O)=O)cc3)c3ccc4[nH]nc(F)c4c3)cn2)C1` ?
Result: 95

Task: Next entry: `O=C(/C=C/CN1CCC[C@@H](Oc2ccc(/C(=C(/CC(F)(F)F)c3ccccc3)c3ccc4[nH]nc(F)c4c3)cn2)C1)N1CCNCC1`
Result: 98

Task: Next entry: `O=C(/C=C/CN1CCC[C@@H](Oc2ccc(/C(=C(/CC(F)(F)F)c3ccccc3)c3ccc4[nH]nc(F)c4c3)cn2)C1)N1CCCC1`
Result: 95

Task: Next entry: `O=C(/C=C/CNC1(COc2ccc(/C(=C(/CC(F)(F)F)c3ccccc3)c3ccc4[nH]nc(F)c4c3)cn2)CC1)N1CC(O)C1`
Result: 96

Task: Next entry: `O=C(/C=C/CNC1(COc2ccc(/C(=C(/CC(F)(F)F)c3ccccc3)c3ccc4[nH]nc(F)c4c3)cn2)CC1)N1CCCC1`
Result: 87

Task: Next entry: `CN(C)C(=O)/C=C/CN1CCC[C@@H](Oc2ccc(/C(=C(/CC(F)(F)F)c3ccc(F)cc3)c3ccc4[nH]nc(F)c4c3)cn2)C1`
Result: 94
